B1: LINE1-mini (parent)
chain: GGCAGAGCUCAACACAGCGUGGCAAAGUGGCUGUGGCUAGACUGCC

Variants of: B1
Test: self-cleavage, relative activity (ratio to wild type); higher = more cleavage; in vitro, sequencing; the parent is a self-cleaving ribozyme
assay_endpoint: self-cleavage

                     macromolecule_sequence  value_reported
0  GGCAGAGCUCAACCCAGCGUGGCAAAUUGGCUGUGGCUAGACUGCC [A14C G27U]            0.09
1  GGAACAGCUCAACACAGCGUGGCAAAGUGGCUGUGGCUAGACUGCC [C3A G5C]            0.31
2  GGCAGAGUUCAGCACAGCGUGGCAAAGUGGCUGUGGCUAGACUGCC [C8U A12G]            0.08
3  GGCAGAGCUCAACAUAGCGUGGCAAAGUGGCUGUGGCUUGACUGCC [C15U A39U]            0.72
4  GGCAGAGCUCAACACAGCGUGGCAAAGUGUCUGUGGCUAGCCUGCC [G30U A41C]            0.06
5  GGCAGAGCUCAACACAGCGUGGCAAAGUGGCGGUGGCAAGACUGCC [U32G U38A]            0.07
6  GGCAGAGCUCAACACAGCGUGGCAAAGUUGCUGUGGCUAGACUGUC [G29U C45U]            1.99
7  GGCAGAGCUCAACACAGCGUGACAAAGUGGCUGUGGCUAAACUGCC [G22A G40A]            0.08
